Each recorded value in this set is attributed to PubChem BioAssay (Tox21).

assay-info: qHTS assay to identify small molecule antagonists of the thyroid receptor (TR) signaling pathway (AID 743065); note: nearly all actives have a fitted effect of over 55% in size
applied-conditions: GH3.TRE-Luc, T3-stimulated luciferase inhibition, 23.5 h; series mostly up to 70.3 µM
Records with an inconclusive call do not appear. Calls of active or inactive are those of the source. Calls come from the whole dose curve; as a rule, active = well fitted inhibition curve with a large enough effect in the repeat runs; inconclusive = weak or mixed curves; inactive = no such curve, though single readings can be large or run the other way.
API: response.call in 1 = active, 0 = inactive

These recorded examples may help you get a feel for the data.
# input Just curious, what result did Cc1cc(C(=O)O)ccc1[N+](=O)[O-] get here?
# output 0

# input How about this compound: O=C(c1ccc(F)cc1)C1CCN(CCn2c(=S)[nH]c3ccccc3c2=O)CC1
# output 0

# input What do we get for CC1CCC(=O)C1=O (stereo not drawn) ?
# output 0

# input And then C#C[C@]1(O)CC[C@H]2[C@@H]3CCc4cc(OC5CCCC5)ccc4[C@H]3CC[C@@]21C , what is it?
# output 1

# input Next record, please: O=C(Nc1ccccc1)c1ccccc1O
# output 1

Further cases:
# input Kindly provide the recorded test outcome for the following compound: Nc1ccccc1S(=O)(=O)c1ccccc1
# output 0

# input // query: C=C(C)C(=O)OCC
# output 0

----------
assay-info: qHTS assay for identifying genotoxic compounds that show differential cytotoxicity against isogenic chicken DT40 cell lines with known DNA damage response pathways - wild type cell line (AID 743012); note: nearly all actives have a fitted effect of over 60% in size
applied-conditions: DT40 wild type chicken cells viability, CellTiter-Glo, 40 h; series mostly up to 68.4 µM
Records with an inconclusive call do not appear. Calls of active or inactive are those of the source. The call rests on the fitted dose curve; in most records, active means well fitted cell-killing curve with a large enough effect in the repeat runs; inconclusive means weak or mixed curves, or effect the other way; inactive means no such curve, though single readings can be large or run the other way.
Your response should consist of one outcome taken from active, inactive

Look over these answered cases.
# input Would you mind telling me which call this test gave Nc1cc(C(=O)O)c(O)c(S(=O)(=O)O)c1 ?
# output inactive

# input Ok, now NCC(=O)O
# output inactive

# input And for C[C@@H](c1ncncc1F)C(O)(Cn1cncn1)c1ccc(F)cc1F (stereo partly drawn) ?
# output inactive

# input Repeat with C#C[C@]1(O)CC[C@H]2[C@@H]3CCc4cc(OC5CCCC5)ccc4[C@H]3CC[C@@]21C
# output active

# input What do you get for CCCNCC(O)COc1ccccc1C(=O)CCc1ccccc1 (stereo not drawn) ?
# output active

***
# input Recorded call for CC1=CCCC(C)(C)C12CCC(C)O2 (stereo not drawn) ?
# output active

----------
target-under-test: Glucocorticoid receptor (Homo sapiens) (UniProt P04150)
Sequence (P04150 whole entry, looked up): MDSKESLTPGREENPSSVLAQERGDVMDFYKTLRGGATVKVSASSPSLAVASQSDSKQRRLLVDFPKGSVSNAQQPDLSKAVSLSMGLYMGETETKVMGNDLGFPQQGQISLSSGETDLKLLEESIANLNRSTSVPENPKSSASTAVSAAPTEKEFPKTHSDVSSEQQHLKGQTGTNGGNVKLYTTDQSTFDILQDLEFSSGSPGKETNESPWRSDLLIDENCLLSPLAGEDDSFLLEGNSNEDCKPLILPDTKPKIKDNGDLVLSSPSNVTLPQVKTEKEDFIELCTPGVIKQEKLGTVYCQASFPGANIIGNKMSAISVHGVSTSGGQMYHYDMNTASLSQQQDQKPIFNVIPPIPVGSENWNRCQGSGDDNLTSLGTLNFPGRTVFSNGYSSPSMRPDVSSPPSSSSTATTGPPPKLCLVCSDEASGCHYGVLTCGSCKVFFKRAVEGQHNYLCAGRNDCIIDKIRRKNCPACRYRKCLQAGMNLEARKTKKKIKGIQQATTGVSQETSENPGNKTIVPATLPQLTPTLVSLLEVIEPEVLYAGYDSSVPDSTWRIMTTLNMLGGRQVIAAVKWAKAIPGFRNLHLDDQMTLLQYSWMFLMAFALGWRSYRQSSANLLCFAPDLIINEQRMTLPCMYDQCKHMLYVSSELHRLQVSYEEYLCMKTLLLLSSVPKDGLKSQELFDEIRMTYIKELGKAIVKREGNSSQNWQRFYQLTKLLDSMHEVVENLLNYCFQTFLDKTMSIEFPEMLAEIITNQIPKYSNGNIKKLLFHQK
assay-info: qHTS assay to identify small molecule antagonists of the glucocorticoid receptor (GR) signaling pathway (AID 720692); note: % is set by controls: 0 for no effect and ±100 for the full control effect
applied-conditions: GR-bla HeLa, beta-lactamase FRET ratio, dexamethasone-stimulated, 18 h; series mostly up to 58.5 µM
Inconclusive results are not listed. Calls of active or inactive are those of the source. The call rests on the fitted dose curve; in most records, active means well fitted inhibition curve with a large enough effect in the signal ratio in the repeat runs (not every such curve was filed as active); inconclusive means weak or mixed curves, or effect the other way; inactive means no such curve, though single readings can be large or run the other way; the % refers to the signal ratio.
Bench note: report the call from Y (active), N (inactive)

# input Hey, what did the test say about Cn1c(=O)cc(Oc2ccc(F)cc2F)c2cnc(NCC(C)(C)O)nc21 ?
# output N

# input Would you kindly repeat that for CCO[Si](CCCCl)(OCC)OCC ?
# output N

# input Another compound to check: CN(Cc1ccc(C(C)(C)C)cc1)Cc1cccc2ccccc12
# output N

# input Now give it for CCCCCCCC/C=C\CCCCCCCC(=O)OCC too.
# output N

Let's switch to this compound now.
# input # fetch the recorded call for C=C1[C@H]2CC[C@@H]3[C@H]2C(C)(C)CCC[C@]13C here
# output N

----------
assay-info: qHTS assay to identify small molecule agonists of the NFkB signaling pathway - cell viability counter screen (AID 1159515); note: nearly all actives have a fitted effect of over 55% in size
applied-conditions: NFkB-bla ME-180 viability, CellTiter-Glo luminescence, 5 h; series mostly up to 61 µM
Inconclusive results are not listed. The source made the active and inactive calls. Calls come from the whole dose curve.
Hello, when you answer, please use one of the following outcomes: t = active, f = inactive

// known answers, use as guide
# input I would be grateful if you could indicate the recorded call for COc1cc2nc(Cl)nc(N)c2cc1OC .
# output f

# input Then what about the molecule COCC(C)OC(C)=O (centres undefined) ?
# output f

# input Could you do the same for CCCCC(CC)COC(=O)CCCCCCCCC(=O)OCC(CC)CCCC (centres undefined) , please?
# output f

# input Query ClCCOCCOCCCl next
# output f

# input Also check CN(C)CCOC(c1ccccc1)c1ccc(Br)cc1 (centres undefined)
# output f

Further cases:
# input // outcome(item) with item = CCCCC
# output f

# input One more molecule: CCCCCCCCCCCCN1CCCCCC1=O
# output t

# input Ok, now CCN(CC)c1ccc2c(-c3ccccc3C(=O)O)c3ccc(=[N+](CC)CC)cc-3oc2c1
# output f

# input Can you handle C#Cc1cccc(Nc2ncnc3cc(OCCOC)c(OCCOC)cc23)c1 next?
# output f

# input Now consider Nc1c(CC(=O)O)cccc1C(=O)c1ccc(Br)cc1 .
# output f
